Target: recombinant HSL (Homo sapiens, UniProt Q05469)
Sequence (Q05469 whole entry, species assumed): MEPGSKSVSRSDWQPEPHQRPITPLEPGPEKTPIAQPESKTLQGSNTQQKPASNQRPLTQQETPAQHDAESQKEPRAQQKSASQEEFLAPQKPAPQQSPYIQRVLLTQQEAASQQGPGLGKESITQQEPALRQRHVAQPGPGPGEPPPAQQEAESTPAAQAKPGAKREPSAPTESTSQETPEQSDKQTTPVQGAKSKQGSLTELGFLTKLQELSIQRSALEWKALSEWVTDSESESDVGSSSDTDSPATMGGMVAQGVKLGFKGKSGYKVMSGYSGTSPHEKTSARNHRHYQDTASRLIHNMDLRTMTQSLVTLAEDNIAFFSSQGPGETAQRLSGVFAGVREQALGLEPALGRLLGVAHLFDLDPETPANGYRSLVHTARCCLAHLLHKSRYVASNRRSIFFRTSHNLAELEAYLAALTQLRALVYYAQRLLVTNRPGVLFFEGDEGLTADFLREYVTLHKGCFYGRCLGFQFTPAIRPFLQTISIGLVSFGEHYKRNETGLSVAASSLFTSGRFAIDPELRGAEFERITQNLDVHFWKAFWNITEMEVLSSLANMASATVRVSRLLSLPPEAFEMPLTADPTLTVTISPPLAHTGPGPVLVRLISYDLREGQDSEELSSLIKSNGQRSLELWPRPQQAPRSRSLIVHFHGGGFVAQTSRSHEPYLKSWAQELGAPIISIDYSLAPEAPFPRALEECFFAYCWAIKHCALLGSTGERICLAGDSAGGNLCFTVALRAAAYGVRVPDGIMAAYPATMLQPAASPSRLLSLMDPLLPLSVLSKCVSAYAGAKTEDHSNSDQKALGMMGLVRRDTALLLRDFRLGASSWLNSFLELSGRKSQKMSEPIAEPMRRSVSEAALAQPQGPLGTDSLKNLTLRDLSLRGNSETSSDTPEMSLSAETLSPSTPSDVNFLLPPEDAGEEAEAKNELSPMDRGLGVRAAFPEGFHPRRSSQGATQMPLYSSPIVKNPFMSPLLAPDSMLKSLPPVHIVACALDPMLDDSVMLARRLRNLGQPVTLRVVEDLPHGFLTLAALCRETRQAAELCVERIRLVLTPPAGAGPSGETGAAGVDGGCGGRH
Assay: Inhibition of recombinant HSL activity
Type: biochemical
Conditions: compound stock 10 mg/mL in 20% DMSO, read-out: IC50 for inhibiting HSL activity
Method: Compounds 1-7 were dissolved in 20% DMSO as 10 mg/mL stock, and used in assays with recombinant HSL to test for the potency for inhibiting HSL activity, the protocol for which is described in International Patent Application No. PCT/US07/00284, which is incorporated by reference in its entirety herein. Each compound's inhibitory effect on HSL is shown in FIG. 1 and 2, with Compound 1 having an IC50 of about 0.1 to about 0.2 mg/mL and Compound 5 showing about 40% inhibition at 0.4 mg/mL.
QUANTITY: IC50

Give IC50 for the following compound: CCN(CC)C(CC(=O)OCCc1ccc(O)cc1)CC(=O)OCc1ccccc1 (stereo not shown) [Compound 1] 242 to 484 µM
